Each recorded value in this set is attributed to patent US20240392024A1.

- Tgt: T1, human TNFR2 on the cell membrane (human, UniProt P20333 23-461)
- T1 construct: whole, on cells; One molecule for all cell formats; also called TNFR2-CHO cells; CHO-TNFR2
- T1 sequence (looked up): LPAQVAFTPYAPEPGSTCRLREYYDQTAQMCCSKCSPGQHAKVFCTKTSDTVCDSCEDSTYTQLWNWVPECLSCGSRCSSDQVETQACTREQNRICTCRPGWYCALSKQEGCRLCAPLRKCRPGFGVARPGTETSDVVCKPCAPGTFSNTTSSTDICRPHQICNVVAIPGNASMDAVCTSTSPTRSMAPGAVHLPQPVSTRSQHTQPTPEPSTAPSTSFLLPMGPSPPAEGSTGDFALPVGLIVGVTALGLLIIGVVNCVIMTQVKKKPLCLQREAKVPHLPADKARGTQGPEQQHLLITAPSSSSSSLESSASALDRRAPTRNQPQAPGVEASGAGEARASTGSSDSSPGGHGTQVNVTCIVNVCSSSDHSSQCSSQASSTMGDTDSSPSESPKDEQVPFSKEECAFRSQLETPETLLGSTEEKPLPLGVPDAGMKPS
- Procedure Text: flow cytometry, CHO-TNFR2 cells
Listing of entries alongside the reported EC50.
Reply with just the number (in nM).

>>> observed_value("11G2huVH5 + huVL2(P07270) (antibody, V domains shown, Humanized 11G2) VH: QVQLVQSGAEVKKPGASVKVSCKASGYTFITYDINWVRQATGQGLEWIGWIYPRDGNTQYAQKFQGRVTMTRNTSISTAYMELSSLRSEDTAVYYCARGDRDYGYFDVWGQGTTVTVSS VL: DIQMTQSPSSLSASVGDRVTITCRASQDISNYLNWYQQKPGKAPKLLIYFKSKLHSGVPSRFSGSGSGTDFTLTISSLQPEDFATYYCQQGNTLPLTFGGGTKLEIK")
0.162
>>> observed_value("33C12huVH2 + huVL2(P07301) (antibody, V domains shown, Humanized 33C12) VH: EVQLVESGGGLVKPGGSLRLSCAASGFTFSDYTMSWVRQAPGKGLEWVATISTGGSYTYYPDSVKGRFTISRDNAKNTLYLQMSSLRAEDTAVYYCARDGGYDGDYFDYWGQGTTVTVSS VL: ENVLTQSPATLSLSPGERATLSCRASSSVSSSYLHWYQQKPGQAPRLWIYRTSNLASGVPARFSGSGSGTDFTLTISRLEPEDFAVYYCQQYSGYPLTFGGGTKLEIK")
0.873
>>> observed_value("11G2huVH4 + huVL3(P07274) (antibody, V domains shown, Humanized 11G2) VH: QVQLVQSGAEVKKPGASVKVSCKASGYTFITYDINWVRQAPGQGLEWIGWIYPRDGNTQYAQKFQGRVTMTTDTSTSTAYMELRSLRSDDTAVYYCARGDRDYGYFDVWGQGTTVTVSS VL: DIQMTQSPSSLSASVGDRVTITCQASQDISNYLNWYQQKPGKAPKLLIYFKSKLETGVPSRFSGSGSGTDFTFTISSLQPEDIATYYCQQGNTLPLTFGGGTKLEIK")
0.226
>>> observed_value("11G2huVH5 + huVL3(P07275) (antibody, V domains shown, Humanized 11G2) VH: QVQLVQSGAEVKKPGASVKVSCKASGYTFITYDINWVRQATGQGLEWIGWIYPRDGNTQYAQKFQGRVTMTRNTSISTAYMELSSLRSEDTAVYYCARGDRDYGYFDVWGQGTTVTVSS VL: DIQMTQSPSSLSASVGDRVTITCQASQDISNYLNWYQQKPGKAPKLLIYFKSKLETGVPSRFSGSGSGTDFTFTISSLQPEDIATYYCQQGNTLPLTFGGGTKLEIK")
0.056

API: the following record is the query input.
Qu. Returns the measured EC50 for the input binder. Input: 33C12huVH2 + huVL1(P07299) (antibody, V domains shown, Humanized 33C12) VH: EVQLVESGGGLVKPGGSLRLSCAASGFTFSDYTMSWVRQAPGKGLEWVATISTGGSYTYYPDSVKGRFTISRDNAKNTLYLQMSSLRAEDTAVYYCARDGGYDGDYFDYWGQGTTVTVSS VL: ENVLTQSPATLSLSPGERATMSCRASSSVSSSYLHWYQQKPGQAPRLWIYRTSNLASGVPARFSGSGSGTDYTLTISRVEPEDFAVYYCQQYSGYPLTFGGGTKLEIK
Ans. 2.27
